Kd reference
Target: human orexin 2 receptor (hOx2R) (Homo sapiens, UniProt O43614)
Construct: expressed in transfected cells
Sequence (O43614 whole entry): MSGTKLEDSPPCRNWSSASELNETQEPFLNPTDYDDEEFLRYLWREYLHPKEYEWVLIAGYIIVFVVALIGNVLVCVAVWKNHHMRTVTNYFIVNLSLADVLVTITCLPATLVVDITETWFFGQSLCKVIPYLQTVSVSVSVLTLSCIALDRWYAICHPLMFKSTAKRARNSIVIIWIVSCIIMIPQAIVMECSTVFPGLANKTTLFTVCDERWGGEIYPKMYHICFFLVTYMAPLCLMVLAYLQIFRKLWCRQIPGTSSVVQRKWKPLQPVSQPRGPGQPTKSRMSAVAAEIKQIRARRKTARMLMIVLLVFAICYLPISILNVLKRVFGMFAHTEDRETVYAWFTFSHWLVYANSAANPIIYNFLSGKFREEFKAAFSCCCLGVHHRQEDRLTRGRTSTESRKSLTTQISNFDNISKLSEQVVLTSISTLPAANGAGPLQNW
Test: Calcium accumulation in cells (FLIPR), antagonism of orexin A, hOx2R
Format: cell-based
Conditions: cells expressing human orexin 2 receptor; IC50 vs orexin A converted by Cheng and Prusoff correction
Method: Cells expressing human orexin 1 or human orexin 2 receptors, were seeded at 8,000 cells/well in 384 well black-walled clear bottom, poly-D-lysine coated plates. […] On the day of the experiment, the cells seeded in black plates were treated with assay buffer containing the Ca^2+ sensitive fluorescent dye Fluo-4-AM (2 μM), and probenecid (0.1 mM). […] Fluorescence measurements were then continued every 1 S for 120 S followed by every 4 S for 240 S. […]
value type: Kd (nM)

- compound: "Cc1cc(C)cc(C(=O)N(C)[C@H](CCNC(=O)c2ccccn2)Cc2ccccc2)c1"
  value type: "Kd"
  display unit: "nM"
  readout number: 39
- compound: "CN(C(=O)c1ccccc1)[C@@H](Cc1ccccc1)[C@H](O)CNC(=O)c1ccccn1"
  value type: "Kd"
  display unit: "nM"
  readout number: 1660
- compound: "Cc1cc(F)cc(C(=O)N(C)[C@H](CCNC(=O)c2cccn2C)Cc2ccccc2)c1"
  value type: "Kd"
  display unit: "nM"
  readout number: 13
- compound: "CN(C(=O)c1cccc2ccccc12)[C@H](CCNC(=O)c1ccccn1)Cc1ccc(F)cc1"
  value type: "Kd"
  display unit: "nM"
  readout number: 4
- compound: "CN(C(=O)c1cc(C(F)(F)F)cc(C(F)(F)F)c1)C(CCNC(=O)c1ccccc1)Cc1ccccc1 (centres unmarked)"
  value type: "Kd"
  display unit: "nM"
  readout number: 41
- compound: "CN(C(=O)c1ccccc1)[C@H](CCNC(=O)c1ccc2c(c1)OCO2)Cc1ccccc1"
  value type: "Kd"
  display unit: "nM"
  readout number: 164
- compound: "CCOc1cc(OCC)cc(C(=O)N(C)[C@H](CCNC(=O)c2cccn2C)Cc2ccccc2)c1"
  value type: "Kd"
  display unit: "nM"
  readout number: 24
- compound: "CN(C(=O)c1ccc2c(c1)OCO2)[C@H](CCNC(=O)c1nc2ccccc2o1)Cc1ccccc1"
  value type: "Kd"
  display unit: "nM"
  readout number: 542
- compound: "CN(C(=O)c1ccc2c(ccn2C)c1)[C@H](CCNC(=O)c1ccccn1)Cc1ccccc1"
  value type: "Kd"
  display unit: "nM"
  readout number: 809
- compound: "CN(C(=O)c1ccccc1)[C@H](CCNC(=O)c1ccc2cccnc2c1)Cc1ccccc1"
  value type: "Kd"
  display unit: "nM"
  readout number: 3090
- compound: "CN(C(=O)c1ccc2ccccc2c1)[C@H](CCNC(=O)c1nc2ccccc2n1C)Cc1ccc(F)cc1"
  value type: "Kd"
  display unit: "nM"
  readout number: 26
- compound: "CN(C(=O)c1cccc2c1OCO2)[C@H](CCNC(=O)c1nc2ccccc2n1C)Cc1ccccc1"
  value type: "Kd"
  display unit: "nM"
  readout number: 114
- compound: "CN(C(=O)c1cc(C(F)(F)F)cc(C(F)(F)F)c1)[C@@H](CCNC(=O)c1ccccn1)Cc1ccccc1"
  value type: "Kd"
  display unit: "nM"
  readout number: 1610
- compound: "CN(C(=O)c1cccc2ccccc12)[C@H](CCNC(=O)c1ccccn1)Cc1ccc(Cl)cc1"
  value type: "Kd"
  display unit: "nM"
  readout number: 9
- compound: "CN(C(=O)c1ccccc1)[C@H](CCNC(=O)c1cccn1C)Cc1ccccc1"
  value type: "Kd"
  display unit: "nM"
  readout number: 375
- compound: "CN(C(=O)c1cccc(OC(F)(F)F)c1)[C@H](CCNC(=O)c1cccn1C)Cc1ccccc1"
  value type: "Kd"
  display unit: "nM"
  readout number: 7
- compound: "CN(C(=O)c1cc(C(F)(F)F)cc(C(F)(F)F)c1)[C@H](CCNC(=O)c1nc2ccccc2n1C)Cc1ccccc1"
  value type: "Kd"
  display unit: "nM"
  readout number: 40
- compound: "CN(C(=O)c1ccccc1)[C@H](CCNC(=O)c1nc2ccccc2n1C)Cc1ccccc1"
  value type: "Kd"
  display unit: "nM"
  readout number: 84
- compound: "CCN(C(=O)c1cc(C(F)(F)F)cc(C(F)(F)F)c1)[C@H](CCNC(=O)c1ccccn1)Cc1ccccc1"
  value type: "Kd"
  display unit: "nM"
  readout number: 27
- compound: "CN(C(=O)c1cccc(C(F)(F)F)c1)[C@H](CCNC(=O)c1ccccn1)Cc1ccccc1"
  value type: "Kd"
  display unit: "nM"
  readout number: 44
- compound: "CN(C(=O)c1ccc2c(c1)OCO2)[C@H](CCNC(=O)c1cc2ccccc2n1C)Cc1ccccc1"
  value type: "Kd"
  display unit: "nM"
  readout number: 31
- compound: "CN(C(=O)c1ccccc1)[C@H](CCNC(=O)c1ccc2c(c1)CCO2)Cc1ccccc1"
  value type: "Kd"
  display unit: "nM"
  readout number: 565
- compound: "CN(C(=O)c1ccc2ccccc2c1)[C@H](CCNC(=O)c1ccccn1)Cc1ccc(F)cc1"
  value type: "Kd"
  display unit: "nM"
  readout number: 1060
- compound: "CN(C(=O)c1ccc2c(c1)OCO2)[C@@H](Cc1ccccc1)[C@H](O)CNC(=O)c1ccc2c(c1)OCO2"
  value type: "Kd"
  display unit: "nM"
  readout number: 761
- compound: "COc1ccc(C(=O)N(C)[C@H](CCNC(=O)c2ccccn2)Cc2ccccc2)cc1"
  value type: "Kd"
  display unit: "nM"
  readout number: 826
- compound: "Cc1cccc(C(=O)N(C)[C@H](CCNC(=O)c2cccn2C)Cc2ccccc2)c1"
  value type: "Kd"
  display unit: "nM"
  readout number: 4
- compound: "COc1ccc(C(=O)N(C)[C@H](CCNC(=O)c2ccccn2)Cc2ccccc2)cc1OC"
  value type: "Kd"
  display unit: "nM"
  readout number: 145
- compound: "CN(C(=O)c1ccc2ccccc2c1)[C@H](CCNC(=O)c1nc2ccccc2n1C)Cc1ccc(Cl)cc1"
  value type: "Kd"
  display unit: "nM"
  readout number: 59
- compound: "CN(C(=O)c1ccc2c(c1)OCC2)[C@H](CCNC(=O)c1cccn1C)Cc1ccccc1"
  value type: "Kd"
  display unit: "nM"
  readout number: 65
- compound: "CN(C(=O)c1ccc2c(c1)OCO2)[C@H](CCNC(=O)c1ccccn1)Cc1ccc(F)cc1"
  value type: "Kd"
  display unit: "nM"
  readout number: 794
- compound: "CN(C(=O)c1cccc2c1ccn2C)[C@H](CCNC(=O)c1ccccn1)Cc1ccccc1"
  value type: "Kd"
  display unit: "nM"
  readout number: 221
- compound: "CCCCC(=O)NCCC(Cc1ccccc1)N(C)C(=O)c1cc(C(F)(F)F)cc(C(F)(F)F)c1 (centres unmarked)"
  value type: "Kd"
  display unit: "nM"
  readout number: 419
